Cited source: patent US20260116991A1

# OD450 nm annotations
Target: T1, polypeptide GC3pep (human)
T1 construct: also called membrane proximal polypeptide GC3pep
T1 peptide: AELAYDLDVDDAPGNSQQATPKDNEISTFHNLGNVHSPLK
Test: ELISA, GC3pep coated, antibody 0.1 nM;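 note: antibody allowed to bind the coated plate 2 h at 37 °C, then detected via HRP-conjugated secondary antibody and TMB development for 10 min, stopped with HCl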
Could you give me the number in OD450 nm? Just the number is fine.

[
  {
    "Binder": "F2.23.8 (antibody, human IgG1, kappa, V domains shown, human-murine chimeric antibody) VH: QVQLQQSGAELVRPGASVKLSCKASGYTFTDYEMHWVKQTPVHGLEWFGAIDPETGGTAYNQKFRAKATLTADKSSSTAYMELRSLTSEDSAVYYCTRFYSFAYWGQGTLVTVSA VL: DVVMTQTPLSLPVSLGDQASISCRSSQSLVHSNGNTYLQWYLQKPGQSPKLLIYKVSNRFSGVPDRFSGSGSGTDFTLKITRVEAEDLGVYFCSQSTHVPYTFGSGTKLEIKR",
    "OD450 nm, OD450 nm": 1.38
  }
]

// switching to the query binder
Query: Consider the binder F1.110.24 (antibody, human IgG1, kappa, V domains shown, human-murine chimeric antibody) VH: EVKLVESGGGLVQPGGSLKLSCAASGFTFSDFYMYWVRQTPEKRLEWVAFISNGGGSTYYPDTVKGRFTISRDNVKNTLYLQMSRLKSEDTAMYYCARPDTSWFAYWGQGSLVTVSA VL: DIQMTQTTSSLSASLGDRVTISCRASQDIDNYLNWYQQKPDGTVKVLISYTSRLHSGVPSRFSGSGSGTDYSLTISNLEQEDIATYFCQQGNTLPWTFGGGTKLEIKR and give its measured OD450 nm.
Response: 0.05
